System: RAW-Dual (murine macrophage reporter line)
assay details: NF-kB reporter (SEAP) activity fold change vs agonist alone; higher = enhanced NF-kB activity
cond: modulator concentration 10 µM; agonist: MPLA […]
Please note: 1 (yes) applies when NF-kB reporter is 1 or greater, and 0 (no) applies otherwise.

>>> class("Cc1cc(C(=O)Nc2nnc(-c3ccc(F)cc3)o2)n(C)n1")
"1 (yes)"
>>> class("Cc1cc(C(=O)NCc2sc(-c3ccccc3Cl)nc2C)c(C)o1")
"1 (yes)"
>>> class("O=C(NCC#CCOc1cccc(C(F)(F)F)c1)Nc1c(F)cccc1F")
"0 (no)"
>>> class("Cc1nccn1CC1CCc2c(c3ccccc3n2C)C1=O.Cl (stereo unspecified)")
"0 (no)"
>>> class("Nc1cccc(O)c1")
"1 (yes)"
>>> class("CC(N)c1ccc(Nc2ncc3cc(-c4ccncc4)ccc3n2)cc1.Cl.Cl.Cl (stereo unspecified)")
"1 (yes)"
